test: Pharmacokinetic test using chimeric mouse, 5 marker drugs simultaneously, oral or intravenous, donor IVT079; conditions: uPA(+/+)/SCID, mouse, in vivo, iv, AUC, intravenous administration; high-replacement chimeric mouse; donor IVT079
RECORDED ENDPOINT: AUC

• COc1ccc2c(c1)[C@]13CCCC[C@@H]1[C@H](C2)N(C)CC3 [Dextromethorphan, dextromethorphan] = 4030 ng·h/mL

###

Experiment: Pharmacokinetic test using chimeric mouse, 5 marker drugs simultaneously, oral or intravenous, donor IVT079
Details: uPA(+/+)/SCID, mouse, in vivo, po, t 1/2 Elimination phase, oral administration; high-replacement chimeric mouse; donor IVT079; time window per footnote
Protocol: As for the chimeric mice, chimeric mice produced by Hiroshima Prefectural Institute of Industrial Science and Technology or PhoenixBio Co., Ltd. were used. […] To Eppendorf tubes in which 5 μl of samples to be measured (serum) were contained, 100 μl of methanol was added, and 10 μl of 1 μg/ml of I.S. standard solution was added thereto, and then, the mixtures were thoroughly mixed by an ultrasonic treatment and a vortex mixer. […]
RECORDED ENDPOINT: half-life (h)

* COc1ccc2c(c1)[C@]13CCCC[C@@H]1[C@H](C2)N(C)CC3 | 10.4

###

test system: CYP2D6; assay: in vivo; conditions: uPA(+/+)/SCID, mouse, po, t 1/2 Elimination phase
RECORDED ENDPOINT: half-life (h)

* COc1ccc2[nH]c([S+]([O-])Cc3ncc(C)c(OC)c3C)nc2c1 (stereo not shown) | 1.55

###

Assay: in vivo
Details: uPA(+/+)/SCID, mouse, in vivo, po, t 1/2 Elimination phase
Experimental: As for the chimeric mice, chimeric mice produced by Hiroshima Prefectural Institute of Industrial Science and Technology or PhoenixBio Co., Ltd. were used. […] To Eppendorf tubes in which 5 μl of samples to be measured (serum) were contained, 100 μl of methanol was added, and 10 μl of 1 μg/ml of I.S. standard solution was added thereto, and then, the mixtures were thoroughly mixed by an ultrasonic treatment and a vortex mixer. […]
RECORDED ENDPOINT: half-life (h)

- CCCCNC(=O)NS(=O)(=O)c1ccc(C)cc1 [Tolbutamide, tolbutamide]: 4.3
- COc1ccc2[nH]c([S+]([O-])Cc3ncc(C)c(OC)c3C)nc2c1 (centres unmarked): 1.03

###

test system: CYP2D6; test: Pharmacokinetic test of marker drugs in high-replacement chimeric mouse under inhibition of CYP2D6 by paroxetine, donor BD51; details: uPA(+/+)/SCID, in vivo, po, 30 mg/kg/day
RECORDED ENDPOINT: Cmax (ng/mL)

* COc1ccc2c(c1)[C@]13CCCC[C@@H]1[C@H](C2)N(C)CC3 [Dextromethorphan, dextromethorphan] | 156

###

assay: Pharmacokinetic test using chimeric mouse, 5 marker drugs simultaneously, oral or intravenous, donor IVT079; conditions: uPA(+/+)/SCID, mouse, in vivo, iv, AUC, intravenous administration; low-replacement chimeric mouse; donor IVT079
RECORDED ENDPOINT: AUC (ng·h/mL)

• COc1ccc2c(c1)[C@]13CCCC[C@@H]1[C@H](C2)N(C)CC3 = 4600

###

assay: Pharmacokinetic test using chimeric mouse, 5 marker drugs simultaneously, oral or intravenous, donor IVT079; conditions: uPA(+/+)/SCID, mouse, in vivo, iv, t 1/2 Elimination phase, intravenous administration; low-replacement chimeric mouse; donor IVT079; 2-8 hr
RECORDED ENDPOINT: half-life (h)

* COc1ccc2c(c1)[C@]13CCCC[C@@H]1[C@H](C2)N(C)CC3 | 1.5
